I'd be grateful if you could share measured log10 IC50 for these entries.
Hey, these are logged values: log10 of IC50, nM being the unit before logging.

Task item: Give log10 IC50 only, for C=CC(=O)Nc1ccc(C(=O)N2CC[C@@H](Nc3ncc(Cl)cn3)C2)cc1 [Compound 3] , using CDK13 (Homo sapiens, UniProt Q14004) data.
Reply: 2.58

Task item: Give log10 IC50 only, for C=CC(=O)N(C)c1ccc(C(=O)N2CC[C@@H](Nc3ncc(Cl)c(OC)n3)C2)cc1 [Compound 2] , using CDK13 (Homo sapiens, UniProt Q14004) data.
Reply: 2.51

Task item: Give log10 IC50 only, for C=CC(=O)Nc1ccc(C(=O)N2CC[C@@H](Nc3ncc(Cl)c(OC)n3)C2)cc1 [Compound 1] , using CDK13 (Homo sapiens, UniProt Q14004) data.
Reply: 1.41

Task item: Give log10 IC50 only, for C#Cc1cnc(N[C@@H]2CCN(C(=O)c3ccc(NC(=O)C=C)cc3)C2)nc1 [Compound 5] , using CDK13 (Homo sapiens, UniProt Q14004) data.
Reply: 2.02

Task item: Give log10 IC50 only, for C=CC(=O)Nc1ccc(C(=O)N2CC[C@@H](Nc3ncc(C#N)cn3)C2)cc1 [Compound 4] , using CDK13 (Homo sapiens, UniProt Q14004) data.
Reply: 2.47

----------
Endpoint Name: log10 of IC50 (log10 of the value in nM)
Hey, these are logged values: log10 of IC50, nM being the unit before logging.

Task item: Give log10 of IC50 only, for C#Cc1cnc(N[C@@H]2CCN(C(=O)c3ccc(NC(=O)C=C)cc3)C2)nc1 , using CDK7 (Homo sapiens, UniProt P50613) data.
Reply: 3.58

Task item: Give log10 of IC50 only, for C=CC(=O)N(C)c1ccc(C(=O)N2CC[C@@H](Nc3ncc(Cl)c(OC)n3)C2)cc1 , using CDK7 (Homo sapiens, UniProt P50613) data.
Reply: 2.71

Task item: Give log10 of IC50 only, for C=CC(=O)Nc1ccc(C(=O)N2CC[C@@H](Nc3ncc(C#N)cn3)C2)cc1 , using CDK7 (Homo sapiens, UniProt P50613) data.
Reply: 3.84

Task item: Give log10 of IC50 only, for C=CC(=O)Nc1ccc(C(=O)N2CC[C@@H](Nc3ncc(Cl)c(OC)n3)C2)cc1 , using CDK7 (Homo sapiens, UniProt P50613) data.
Reply: 3.04

Task item: Give log10 of IC50 only, for C=CC(=O)Nc1ccc(C(=O)N2CC[C@@H](Nc3ncc(Cl)cn3)C2)cc1 , using CDK7 (Homo sapiens, UniProt P50613) data.
Reply: 3.45

----------
Target: CDK9 (Homo sapiens, UniProt P50750)
Sequence (P50750 whole entry): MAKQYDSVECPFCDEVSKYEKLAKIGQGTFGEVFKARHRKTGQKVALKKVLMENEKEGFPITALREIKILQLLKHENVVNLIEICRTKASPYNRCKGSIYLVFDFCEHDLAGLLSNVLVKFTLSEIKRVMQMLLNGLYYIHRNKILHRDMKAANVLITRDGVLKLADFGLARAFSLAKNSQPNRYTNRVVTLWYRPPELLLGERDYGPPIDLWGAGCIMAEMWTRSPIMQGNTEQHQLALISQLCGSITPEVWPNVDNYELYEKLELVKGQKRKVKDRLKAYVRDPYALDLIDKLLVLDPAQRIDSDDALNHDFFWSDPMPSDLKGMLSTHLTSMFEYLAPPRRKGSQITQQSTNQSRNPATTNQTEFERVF
Sequence (O60563 whole entry partner): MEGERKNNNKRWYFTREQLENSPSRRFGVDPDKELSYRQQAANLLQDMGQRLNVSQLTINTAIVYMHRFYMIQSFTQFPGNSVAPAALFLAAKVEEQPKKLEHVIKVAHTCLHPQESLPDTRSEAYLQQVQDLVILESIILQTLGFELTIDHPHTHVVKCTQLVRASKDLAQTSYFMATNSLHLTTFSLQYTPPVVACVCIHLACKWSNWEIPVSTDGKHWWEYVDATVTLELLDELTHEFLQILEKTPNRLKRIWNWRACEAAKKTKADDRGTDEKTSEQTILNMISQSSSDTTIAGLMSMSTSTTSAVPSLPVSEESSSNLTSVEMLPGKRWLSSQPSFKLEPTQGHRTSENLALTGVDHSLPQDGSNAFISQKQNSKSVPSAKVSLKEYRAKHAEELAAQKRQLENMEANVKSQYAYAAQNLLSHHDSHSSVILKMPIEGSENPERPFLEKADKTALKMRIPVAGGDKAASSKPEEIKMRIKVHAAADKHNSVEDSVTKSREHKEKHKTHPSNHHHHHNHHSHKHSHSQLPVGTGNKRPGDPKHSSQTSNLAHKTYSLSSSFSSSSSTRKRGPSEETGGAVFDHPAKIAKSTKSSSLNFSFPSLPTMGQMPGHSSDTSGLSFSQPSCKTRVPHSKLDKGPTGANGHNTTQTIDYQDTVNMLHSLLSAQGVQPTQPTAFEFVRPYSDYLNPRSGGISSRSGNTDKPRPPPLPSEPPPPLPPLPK
pIC50: −log10 of the molar value.
The threshold is inclusive: pIC50 of exactly 6 counts as Criterion met; values below receive Criterion not met.

Task item: Does the reported pIC50 for C=CC(=O)Nc1ccc(C(=O)N2CC[C@@H](Nc3ncc(Cl)c(OC)n3)C2)cc1 fall at or above the 6 mark?
Reply: Criterion met

Task item: Does the reported pIC50 for C=CC(=O)Nc1ccc(C(=O)N2CC[C@@H](Nc3ncc(C#N)cn3)C2)cc1 fall at or above the 6 mark?
Reply: Criterion not met

----------
Biological target: CDK12 (Homo sapiens)
Sequence (Q9NYV4 whole entry): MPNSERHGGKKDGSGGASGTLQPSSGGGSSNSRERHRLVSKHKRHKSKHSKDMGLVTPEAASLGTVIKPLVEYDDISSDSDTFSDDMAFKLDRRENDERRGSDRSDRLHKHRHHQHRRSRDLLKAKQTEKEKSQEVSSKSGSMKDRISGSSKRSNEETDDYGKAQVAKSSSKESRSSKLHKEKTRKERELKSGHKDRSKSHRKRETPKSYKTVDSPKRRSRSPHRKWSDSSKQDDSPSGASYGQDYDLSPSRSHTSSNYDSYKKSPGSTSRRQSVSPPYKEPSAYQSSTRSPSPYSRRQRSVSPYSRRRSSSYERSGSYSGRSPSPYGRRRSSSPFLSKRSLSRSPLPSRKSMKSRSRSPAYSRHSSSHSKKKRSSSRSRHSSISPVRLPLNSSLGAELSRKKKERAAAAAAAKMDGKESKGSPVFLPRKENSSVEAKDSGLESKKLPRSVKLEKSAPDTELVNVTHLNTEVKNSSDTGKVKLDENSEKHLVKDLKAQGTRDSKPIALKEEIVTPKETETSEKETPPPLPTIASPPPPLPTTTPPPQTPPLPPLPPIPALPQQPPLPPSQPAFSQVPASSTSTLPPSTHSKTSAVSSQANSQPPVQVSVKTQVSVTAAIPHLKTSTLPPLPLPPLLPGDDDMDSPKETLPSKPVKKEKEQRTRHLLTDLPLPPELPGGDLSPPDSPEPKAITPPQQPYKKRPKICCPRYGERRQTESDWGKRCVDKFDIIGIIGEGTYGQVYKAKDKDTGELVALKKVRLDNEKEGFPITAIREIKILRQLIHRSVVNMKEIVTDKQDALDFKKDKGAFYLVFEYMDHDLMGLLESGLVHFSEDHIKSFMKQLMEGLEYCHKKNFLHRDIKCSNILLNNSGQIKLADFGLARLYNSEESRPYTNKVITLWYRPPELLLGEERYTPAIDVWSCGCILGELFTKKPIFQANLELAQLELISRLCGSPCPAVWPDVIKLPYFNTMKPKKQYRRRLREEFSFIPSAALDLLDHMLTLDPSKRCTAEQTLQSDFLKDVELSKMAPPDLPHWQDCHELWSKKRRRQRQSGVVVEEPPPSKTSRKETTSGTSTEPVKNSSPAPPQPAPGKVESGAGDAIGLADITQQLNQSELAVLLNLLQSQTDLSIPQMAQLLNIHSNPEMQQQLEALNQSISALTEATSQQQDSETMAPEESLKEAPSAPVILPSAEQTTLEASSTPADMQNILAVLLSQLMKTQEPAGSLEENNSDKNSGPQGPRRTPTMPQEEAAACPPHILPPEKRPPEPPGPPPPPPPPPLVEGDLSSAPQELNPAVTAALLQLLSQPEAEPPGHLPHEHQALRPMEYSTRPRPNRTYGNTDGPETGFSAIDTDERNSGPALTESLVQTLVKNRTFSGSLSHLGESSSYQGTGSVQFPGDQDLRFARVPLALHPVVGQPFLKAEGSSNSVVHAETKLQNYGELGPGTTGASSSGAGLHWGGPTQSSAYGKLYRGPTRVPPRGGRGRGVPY
Sequence (O75909 whole entry partner): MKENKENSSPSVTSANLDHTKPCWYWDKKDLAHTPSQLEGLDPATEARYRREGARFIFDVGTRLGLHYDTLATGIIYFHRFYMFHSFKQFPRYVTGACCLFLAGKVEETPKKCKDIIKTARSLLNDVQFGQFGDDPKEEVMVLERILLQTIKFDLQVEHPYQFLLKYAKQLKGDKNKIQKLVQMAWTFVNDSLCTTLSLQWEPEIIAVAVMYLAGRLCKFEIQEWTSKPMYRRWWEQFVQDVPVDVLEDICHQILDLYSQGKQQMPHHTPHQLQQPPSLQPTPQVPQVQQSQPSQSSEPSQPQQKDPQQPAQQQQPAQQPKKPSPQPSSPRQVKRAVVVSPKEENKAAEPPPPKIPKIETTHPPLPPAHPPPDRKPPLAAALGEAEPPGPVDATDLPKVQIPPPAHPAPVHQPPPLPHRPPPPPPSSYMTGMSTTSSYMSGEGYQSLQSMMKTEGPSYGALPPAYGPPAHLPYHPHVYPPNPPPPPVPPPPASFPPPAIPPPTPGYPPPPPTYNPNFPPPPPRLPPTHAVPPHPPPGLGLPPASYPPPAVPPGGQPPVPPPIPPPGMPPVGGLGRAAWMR
Endpoint Name: pIC50
Remember, pIC50 is on a log scale: it is -log10 of the molar concentration.

Task item: Look up pIC50 of C=CC(=O)Nc1ccc(C(=O)N2CC[C@@H](Nc3ncc(C#N)cn3)C2)cc1 [Compound 4] and report it.
Reply: 6.88

Task item: Look up pIC50 of C=CC(=O)Nc1ccc(C(=O)N2CC[C@@H](Nc3ncc(Cl)c(OC)n3)C2)cc1 [Compound 1] and report it.
Reply: 7.67

Task item: Look up pIC50 of C#Cc1cnc(N[C@@H]2CCN(C(=O)c3ccc(NC(=O)C=C)cc3)C2)nc1 [Compound 5] and report it.
Reply: 7.23

Task item: Look up pIC50 of C=CC(=O)Nc1ccc(C(=O)N2CC[C@@H](Nc3ncc(Cl)cn3)C2)cc1 [Compound 3] and report it.
Reply: 7.01

Task item: Look up pIC50 of C=CC(=O)N(C)c1ccc(C(=O)N2CC[C@@H](Nc3ncc(Cl)c(OC)n3)C2)cc1 [Compound 2] and report it.
Reply: 7.26

----------
I'd be grateful if you could share measured pIC50 for these entries.
Remember, pIC50 is on a log scale: it is -log10 of the molar concentration.

Task item: Give pIC50 only, for C=CC(=O)Nc1ccc(C(=O)N2CC[C@@H](Nc3ncc(Cl)cn3)C2)cc1 , using CDK2 (Homo sapiens, UniProt P24941) data.
Reply: 5.10

Task item: Give pIC50 only, for C=CC(=O)Nc1ccc(C(=O)N2CC[C@@H](Nc3ncc(C#N)cn3)C2)cc1 , using CDK2 (Homo sapiens, UniProt P24941) data.
Reply: 5.12

Task item: Give pIC50 only, for C=CC(=O)N(C)c1ccc(C(=O)N2CC[C@@H](Nc3ncc(Cl)c(OC)n3)C2)cc1 , using CDK2 (Homo sapiens, UniProt P24941) data.
Reply: 4.95

Task item: Give pIC50 only, for C#Cc1cnc(N[C@@H]2CCN(C(=O)c3ccc(NC(=O)C=C)cc3)C2)nc1 , using CDK2 (Homo sapiens, UniProt P24941) data.
Reply: 5.47

Task item: Give pIC50 only, for C=CC(=O)Nc1ccc(C(=O)N2CC[C@@H](Nc3ncc(Cl)c(OC)n3)C2)cc1 , using CDK2 (Homo sapiens, UniProt P24941) data.
Reply: 5.94

----------
Endpoint Name: pIC50
Remember, pIC50 is on a log scale: it is -log10 of the molar concentration.

Task item: Give pIC50 only, for C#Cc1cnc(N[C@@H]2CCN(C(=O)c3ccc(NC(=O)C=C)cc3)C2)nc1 [Compound 5] , using CDK9 (Homo sapiens) data.
Reply: 5.86

Task item: Give pIC50 only, for C=CC(=O)Nc1ccc(C(=O)N2CC[C@@H](Nc3ncc(Cl)cn3)C2)cc1 [Compound 3] , using CDK9 (Homo sapiens) data.
Reply: 5.93

Task item: Give pIC50 only, for C=CC(=O)N(C)c1ccc(C(=O)N2CC[C@@H](Nc3ncc(Cl)c(OC)n3)C2)cc1 [Compound 2] , using CDK9 (Homo sapiens) data.
Reply: 5.88
